Measured Count values are reported for all entries that follow.
- TARGET_OR_SYSTEM: Human MPZ (human)
- PROTOCOL_NOTES: phage display, NGS count
Enter the number alone.

Examples with answers:
Form: Entry = YGQSITE (peptide) | System = Human MPZ (human) | Count = ____
37

Form: Entry = KTPILAS (peptide) | System = Human MPZ (human) | Count = ____
38

Others:
Form: Entry = KRNLWDI (peptide) | System = Human MPZ (human) | Count = ____
40

Form: Entry = LVNPFPE (peptide) | System = Human MPZ (human) | Count = ____
39

Form: Entry = IKPPYTH (peptide) | System = Human MPZ (human) | Count = ____
82

Form: Entry = NPISPRN (peptide) | System = Human MPZ (human) | Count = ____
38

* * *

Measured Count values are reported for all entries that follow.
- TARGET_OR_SYSTEM: Human Myelin Basic Protein (Homo sapiens)
- Sequence (P02686 134-304): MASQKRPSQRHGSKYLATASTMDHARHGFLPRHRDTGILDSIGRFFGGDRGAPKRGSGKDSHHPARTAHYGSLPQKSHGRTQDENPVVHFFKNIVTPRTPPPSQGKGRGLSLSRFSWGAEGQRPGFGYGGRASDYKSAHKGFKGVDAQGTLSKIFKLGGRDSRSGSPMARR
- PROTOCOL_NOTES: Phage display library screening (Example 2, Python script analysis), binding to Human Myelin Basic Protein
- Set-up: Enzo 200-606-M001 from human; purchased Enzo 200-606-M001; host or cells: human brain (tissue-derived)
- CONDITIONS: R3 Myelin Basic Protein; combined unique sequence count, Python/R script analysis
Enter the number alone.

Item under review: TQMTMDS (R3 Myelin Basic Protein-binding peptide) . Reported Count?
10

* * *

- TARGET_OR_SYSTEM: Human Myelin Basic Protein (Homo sapiens)
- PROTOCOL_NOTES: Phage display library screening (Example 2, Python script analysis), binding to Human Myelin Basic Protein
- Set-up: Enzo 200-606-M001 from human; purchased Enzo 200-606-M001; host or cells: human brain (tissue-derived)
- CONDITIONS: R3 Myelin Basic Protein; combined unique sequence count, Python/R script analysis
MEASURED_PARAMETER: Count
Enter the number alone.

Examples with answers:
Item under review: DPWVMLR (R3 Myelin Basic Protein-binding peptide) . Reported Count?
11

Item under review: SIRMTEI (R3 Myelin Basic Protein-binding peptide) . Reported Count?
7

Item under review: GPRVTPH (R3 Myelin Basic Protein-binding peptide) . Reported Count?
6

Item under review: NSSPHQI (R3 Myelin Basic Protein-binding peptide) . Reported Count?
7

Read the next record carefully.
Item under review: SWFESHN (R3 Myelin Basic Protein-binding peptide) . Reported Count?
8

* * *

- Tested on: excised human nerve tissue (or nerve extracts)
- PROTOCOL_NOTES: Phage display library screening (Example 2), NEB tissue-binding peptides: nerve tissue and nerve extracts versus muscle
- CONDITIONS: unique sequence count, tissue target: excised nerve, peptides not binding muscle extracts
MEASURED_PARAMETER: Count Excised Nerve

Form: Entry = `EIIVMSGSNVTN` | System = excised human nerve tissue (or nerve extracts) | Count Excised Nerve = ____
9

Form: Entry = `DELVGGAPWYKS` | System = excised human nerve tissue (or nerve extracts) | Count Excised Nerve = ____
20

Form: Entry = `NGMNWLQVHQLS` | System = excised human nerve tissue (or nerve extracts) | Count Excised Nerve = ____
12

Others:
Form: Entry = `WDVAWLERRALH` | System = excised human nerve tissue (or nerve extracts) | Count Excised Nerve = ____
23

Form: Entry = `GLWDGKGRIVEV` | System = excised human nerve tissue (or nerve extracts) | Count Excised Nerve = ____
9

Form: Entry = `GWANSITYRNLY` | System = excised human nerve tissue (or nerve extracts) | Count Excised Nerve = ____
17

Origin of measurements: patent US20240207421A1
